Target: PCBP-2 (poly(C)-binding protein 2) (UniProt Q15366 1-365)
Sequence (Q15366 whole entry): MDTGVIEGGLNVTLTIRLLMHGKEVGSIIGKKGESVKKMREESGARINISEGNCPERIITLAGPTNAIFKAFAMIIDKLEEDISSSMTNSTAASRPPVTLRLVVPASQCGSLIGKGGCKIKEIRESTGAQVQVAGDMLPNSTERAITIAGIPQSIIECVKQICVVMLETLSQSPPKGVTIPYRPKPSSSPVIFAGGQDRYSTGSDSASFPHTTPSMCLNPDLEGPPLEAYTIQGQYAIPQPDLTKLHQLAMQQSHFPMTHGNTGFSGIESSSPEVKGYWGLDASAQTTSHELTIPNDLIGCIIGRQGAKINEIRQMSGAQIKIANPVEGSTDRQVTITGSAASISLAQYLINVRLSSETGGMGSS
Experiment: ELONA-RTqPCR; 6 mM Mg2+; ELONA: 100 mM HEPES pH 7.4, 100 mM NaCl, 6 mM MgCl2, 37 °C, 60 min, PCBP-2 (10 pmol) immobilized on Cu2+ plates; EMSA: 40 mM Tris-HCl pH 7.5, 250 mM NaCl, 0.1%
Conditions: protein: recombinant; tags: N-terminal 6xHis
valueKind: pKd
Friendly reminder that pKd comes from taking -log10 of the concentration in mol/L.

What value of measured pKd is listed for 05RS10-09 (ssRNA) RNA: GGGGCGGAUCCAGACUGGUGUACACGGUGUUUAGUAGUUUAAUGAAUCUUUUAGUUCUUGGGCCCUAAAGACAAGCUUC ?
7.62
